# SYSTEM UNDER TEST: SMARCA2 (Homo sapiens)
# Construct: endogenous in cells; host or cells: A375 cells (ATCC CRL-1619)
# Sequence (P51531 whole entry): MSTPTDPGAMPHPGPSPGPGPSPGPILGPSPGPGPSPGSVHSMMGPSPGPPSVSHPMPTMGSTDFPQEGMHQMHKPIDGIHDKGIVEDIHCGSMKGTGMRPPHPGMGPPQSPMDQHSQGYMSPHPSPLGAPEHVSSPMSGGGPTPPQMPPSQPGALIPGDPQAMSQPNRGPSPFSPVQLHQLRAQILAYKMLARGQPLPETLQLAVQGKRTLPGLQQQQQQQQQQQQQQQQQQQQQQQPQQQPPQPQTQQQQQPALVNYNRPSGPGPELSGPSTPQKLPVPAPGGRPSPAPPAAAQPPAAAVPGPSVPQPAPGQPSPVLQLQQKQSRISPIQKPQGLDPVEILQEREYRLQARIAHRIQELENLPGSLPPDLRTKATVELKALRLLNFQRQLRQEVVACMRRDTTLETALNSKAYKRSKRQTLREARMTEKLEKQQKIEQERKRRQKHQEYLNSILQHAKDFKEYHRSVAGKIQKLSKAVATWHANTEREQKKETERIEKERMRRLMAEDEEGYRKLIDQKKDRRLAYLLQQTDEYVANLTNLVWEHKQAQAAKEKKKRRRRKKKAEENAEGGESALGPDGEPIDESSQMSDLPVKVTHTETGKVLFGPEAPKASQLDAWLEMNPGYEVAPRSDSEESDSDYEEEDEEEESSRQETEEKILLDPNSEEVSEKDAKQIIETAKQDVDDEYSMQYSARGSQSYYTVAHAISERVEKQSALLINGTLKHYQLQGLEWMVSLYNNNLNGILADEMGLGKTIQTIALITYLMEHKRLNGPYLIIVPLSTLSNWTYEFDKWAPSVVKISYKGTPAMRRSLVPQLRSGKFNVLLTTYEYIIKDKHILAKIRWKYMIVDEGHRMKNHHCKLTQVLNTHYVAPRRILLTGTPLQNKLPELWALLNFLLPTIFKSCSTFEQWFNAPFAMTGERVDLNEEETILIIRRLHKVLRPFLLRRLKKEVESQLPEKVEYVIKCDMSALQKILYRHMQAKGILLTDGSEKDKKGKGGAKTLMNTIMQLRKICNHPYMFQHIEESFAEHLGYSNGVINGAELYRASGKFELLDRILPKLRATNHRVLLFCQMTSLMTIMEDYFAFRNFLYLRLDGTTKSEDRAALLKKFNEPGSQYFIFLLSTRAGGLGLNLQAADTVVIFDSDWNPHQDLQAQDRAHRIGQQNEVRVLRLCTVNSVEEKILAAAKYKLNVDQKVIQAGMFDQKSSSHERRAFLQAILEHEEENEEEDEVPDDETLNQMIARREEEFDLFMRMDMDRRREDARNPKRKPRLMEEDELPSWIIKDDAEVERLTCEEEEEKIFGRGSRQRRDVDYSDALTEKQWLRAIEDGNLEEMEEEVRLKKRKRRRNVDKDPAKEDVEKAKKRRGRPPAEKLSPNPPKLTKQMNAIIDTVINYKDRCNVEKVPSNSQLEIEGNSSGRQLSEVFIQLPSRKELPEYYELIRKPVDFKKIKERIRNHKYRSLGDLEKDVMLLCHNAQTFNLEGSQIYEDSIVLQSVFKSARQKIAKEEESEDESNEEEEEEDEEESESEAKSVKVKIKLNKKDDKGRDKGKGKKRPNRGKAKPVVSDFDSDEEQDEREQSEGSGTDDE
# PROCEDURE SUMMARY: SMARCA2 MSD assay in A375 cells (SMARCA2 degradation, 2 h)
# Assay type: cell-based
# EXPERIMENTAL CONDITIONS: 2 h compound treatment, N/C = no curve, read-out: A375 SMARCA2 MSD IC50 IP
QUANTITY: DC50 (nM)

COMPOUND	UNIT ANNOTATION	DC50
Cc1ncsc1-c1ccc([C@H](C)NC(=O)[C@@H]2C[C@@H](O)CN2C(=O)[C@@H](NC(=O)c2cccc(N3CCN(c4cc(-c5ccccc5O)nnc4N)CC3)n2)C(C)(C)C)cc1	nM	120
Cc1ncsc1-c1ccc([C@H](C)NC(=O)[C@@H]2C[C@@H](O)CN2C(=O)[C@@H](NC(=O)c2ccnc(N3CCN(c4cc(-c5ccccc5O)nnc4N)CC3)c2)C(C)(C)C)cc1	nM	43
Cc1ncsc1-c1ccc([C@H](C)NC(=O)[C@@H]2C[C@@H](O)CN2C(=O)[C@@H](NC(=O)c2ccnc(N3CCN(c4cnnc(-c5ccccc5O)c4)CC3)c2)C(C)(C)C)cc1	nM	350

[A] Cc1ncsc1-c1ccc([C@H](C)NC(=O)[C@@H]2C[C@@H](O)CN2C(=O)[C@@H](NC(=O)CN2CCN(c3cc(-c4cccc(F)c4O)nnc3N)CC2)C(C)(C)C)cc1 [compound 2, reference compound]
[B] Cc1ncsc1-c1ccc([C@H](C)NC(=O)[C@@H]2C[C@@H](O)CN2C(=O)[C@@H](NC(=O)c2ccc(N3CCN(c4cc(-c5ccccc5O)nnc4N)CC3)s2)C(C)(C)C)cc1
Endpoint returns the identifier whose DC50 is numerically larger, either A or B . Pick one and reply with its label.
A
(A: 420 nM, B: 190 nM)

Ref: patent US20230091042A1
